# System: HCT-8 cells
# ASSAY NAME: in vitro proliferating human colon adenocarcinoma (HCA) cell screen
# Format: cell-based
# REPORTED CONDITIONS: Table 1, 60 to 65 hours with compound, 50% inhibition of growth, read-out: HCA—3 in vitro ID50
pIC50: −log10 of the molar value.
RECORDED ENDPOINT: pIC50

1) CCN(CC)CCn1nc2c3c(c(NCCN4CCOC4=O)ccc31)Sc1ccccc1-2 [CH2CH2N(C2H5)2 /] : 5.74
2) Nc1ccc2c3c(nn2CCNCCO)-c2ccccc2Sc13 [CH2CH2NHCH2CH2OH / NH2] : 6.24
3) NCCn1nc2c3c(c([N+](=O)[O-])ccc31)Sc1ccccc1-2 [CH2CH2NH2 / NO2 / 199—203] : 6.70
4) CCN(CC)CCn1nc2c3c(c(NCCCN)ccc31)Sc1ccccc1-2 [CH2CH2N(C2H5)2 / NHCH2CH2CH2NH2] : 6.06
5) CCN(CC)CCn1nc2c3c(c([N+](=O)[O-])ccc31)Sc1ccccc1-2 [CH2CH2N(CH2H5)2 / HO2] : 6.70
6) O=[N+]([O-])c1ccc2c3c(nn2CCNCCO)-c2ccccc2Sc13 [CH2CH2NHCH2CH2OH / NO2] : 7.00
7) CN(C)CCCn1nc2c3c(c(N)ccc31)Sc1ccccc1-2 [CH2CH2CH2N(CH3)2 / NH2] : 5.74
8) CCN(CC)CCn1nc2c3c(c(N=CN(C)C)ccc31)Sc1ccccc1-2 [CH2CH2N(C2H5)2 / N=CHN(CH3)2] : 6.62
9) CCN(CC)CCn1nc2c3c(c(NC(=O)CCl)ccc31)Sc1ccccc1-2 [CH2CH2N(C2H5)2 / NHCOCH2Cl] : 6.42
10) O=C1OCCN1CCNc1ccc2c3c(nn2CCNCCO)-c2ccccc2Sc13 [CH2CH2NHCH0H2OH /] : 5.85

The reported measurements were obtained from patent EP0114002B1.
